B1: Tryptophan synthase alpha chain, P0A877 (parent)
chain: MERYESLFAQLKERKEGAFVPFVTLGDPGIEQSLKIIDTLIEAGADALELGIPFSDPLADGPTIQNATLRAFAAGVTPAQCFEMLALIRQKHPTIPIGLLMYANLVFNKGIDEFYAQCEKVGVDSVLVADVPVEESAPFRQAALRHNVAPIFICPPNADDDLLRQIASYGRGYTYLLSRAGVTGAENRAALPLNHLVAKLKEYNAAPPLQGFGISAPDQVKAAIDAGAAGAISGSAIVKIIEQHINEPEKMLAALKVFVQPMKAATRS

variants of: B1; settings: Escherichia coli (strain K12); pH 7; 25 °C; GdnHCl; CD; Tris-HCl 20 mM; reversible: yes; structure 1WQ5; whole UniProt chain shown
Examples of variants with documented unfolding free energy follow.
Remember to quote the unit after the number.

Here's what some known entries look like.
>>> print(df.to_string())
   variant_string       observed
0            P57A  7.73 kcal/mol
1            P62A  7.89 kcal/mol
2            P28A  6.29 kcal/mol
3            P96A  6.08 kcal/mol

Now turn to the next variant.
Asked: Return value of unfolding free energy for input P132A , no commentary.
Given back: 7.15 kcal/mol

The origin of these recorded values is FireProtDB (doi:10.1021/bi961660c).
